Source: patent US20230056252A1

molecular target: T1, biotinylated CD3 epsilon:delta heterodimer protein (Amsbio AMS.CDD-H52WO) (Homo sapiens (Human), UniProt P07766 23-126; P04234 22-105); test: BLI (Octet), CD3 on SA sensor, Fab analyte;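 also: biolayer interferometry with biotinylated CD3 epsilon:delta captured on streptavidin sensors, Fab analyte at several concentrations up to 300 nM, 100 s association then 300 s dissociation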
T1 construct: also called CD3 heterodimer
Kd under 0.4 µM gets Fulfilled, anything at or over 0.4 µM gets Not fulfilled.

Illustrative cases are given below, each with its answer.
>  <BINDER>
huSP34.7.5 Fab-HF (Fab, V domains shown, also called HC7+LC5) VH: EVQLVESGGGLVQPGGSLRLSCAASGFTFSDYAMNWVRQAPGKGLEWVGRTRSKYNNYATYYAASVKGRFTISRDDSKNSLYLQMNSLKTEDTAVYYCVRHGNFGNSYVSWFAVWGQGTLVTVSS VL: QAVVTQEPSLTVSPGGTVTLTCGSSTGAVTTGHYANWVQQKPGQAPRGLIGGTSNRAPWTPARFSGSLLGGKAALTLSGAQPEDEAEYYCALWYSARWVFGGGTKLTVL

>  <CLASS>
Not fulfilled

$$$$
>  <BINDER>
huSP34.10.5 Fab-HF (Fab, V domains shown, also called HC10+LC5) VH: EVQLVESGGGLVQPGGSLRLSCAASGFTFSDYAMNWVRQAPGKGLEWVGRTRSKYNSYATYYAASVKGRFTISRDDSKNSLYLQMNSLKTEDTAVYYCVRHGNFGHSYVSWFAVWGQGTLVTVSS VL: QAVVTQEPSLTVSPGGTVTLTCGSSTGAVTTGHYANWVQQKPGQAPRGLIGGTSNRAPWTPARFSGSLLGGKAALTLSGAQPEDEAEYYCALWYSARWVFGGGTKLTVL

>  <CLASS>
Fulfilled

$$$$
>  <BINDER>
huSP34.9.4 Fab-HF (Fab, V domains shown, also called HC9+LC4) VH: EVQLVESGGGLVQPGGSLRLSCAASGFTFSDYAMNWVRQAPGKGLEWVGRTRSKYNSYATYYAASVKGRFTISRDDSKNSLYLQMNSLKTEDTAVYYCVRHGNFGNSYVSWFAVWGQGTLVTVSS VL: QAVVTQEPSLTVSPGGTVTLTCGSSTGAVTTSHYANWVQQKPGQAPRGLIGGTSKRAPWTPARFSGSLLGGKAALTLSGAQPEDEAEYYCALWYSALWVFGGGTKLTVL

>  <CLASS>
Not fulfilled

$$$$
>  <BINDER>
huSP34.5.4 Fab-HF (Fab, V domains shown, also called HC5+LC4) VH: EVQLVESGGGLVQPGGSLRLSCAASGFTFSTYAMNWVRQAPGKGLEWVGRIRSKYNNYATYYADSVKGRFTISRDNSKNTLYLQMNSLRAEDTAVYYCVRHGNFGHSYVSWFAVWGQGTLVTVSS VL: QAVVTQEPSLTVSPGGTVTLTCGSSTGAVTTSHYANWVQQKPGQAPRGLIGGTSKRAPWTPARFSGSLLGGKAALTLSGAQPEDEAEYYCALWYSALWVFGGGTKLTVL

>  <CLASS>
Not fulfilled

$$$$

### Prompt Strictly below 0.4 µM: is that where Kd of huSP34.4.5 Fab-HF (Fab, V domains shown, also called HC4+LC5) VH: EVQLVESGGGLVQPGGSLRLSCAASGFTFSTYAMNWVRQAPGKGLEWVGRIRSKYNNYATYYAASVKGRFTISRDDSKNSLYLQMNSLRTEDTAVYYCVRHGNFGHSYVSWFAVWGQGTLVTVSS VL: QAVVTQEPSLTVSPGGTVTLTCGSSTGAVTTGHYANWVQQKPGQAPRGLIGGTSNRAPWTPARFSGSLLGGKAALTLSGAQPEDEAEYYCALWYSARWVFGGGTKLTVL sits?
### Response Fulfilled

### Prompt Strictly below 0.4 µM: is that where Kd of huSP34.9.2 Fab-HF (Fab, V domains shown, also called HC9+LC2) VH: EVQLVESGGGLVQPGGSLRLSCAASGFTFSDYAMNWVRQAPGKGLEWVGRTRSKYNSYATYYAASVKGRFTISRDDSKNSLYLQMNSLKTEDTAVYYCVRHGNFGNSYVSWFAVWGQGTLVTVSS VL: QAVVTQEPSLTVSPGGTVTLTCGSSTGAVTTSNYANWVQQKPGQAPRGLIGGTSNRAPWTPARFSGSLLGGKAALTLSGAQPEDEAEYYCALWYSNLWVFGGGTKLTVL sits?
### Response Not fulfilled

### Prompt Strictly below 0.4 µM: is that where Kd of huSP34.2.6 Fab-HF (Fab, V domains shown, also called HC2+LC6) VH: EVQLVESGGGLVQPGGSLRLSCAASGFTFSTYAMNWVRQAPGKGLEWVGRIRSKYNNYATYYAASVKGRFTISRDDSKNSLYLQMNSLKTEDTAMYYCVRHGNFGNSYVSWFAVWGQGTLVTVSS VL: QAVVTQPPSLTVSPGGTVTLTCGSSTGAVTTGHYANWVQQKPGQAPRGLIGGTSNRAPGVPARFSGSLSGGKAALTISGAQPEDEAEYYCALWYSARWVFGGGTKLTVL sits?
### Response Fulfilled

### Prompt Strictly below 0.4 µM: is that where Kd of huSP34.7.1 Fab-HF (Fab, V domains shown, also called HC7+LC1) VH: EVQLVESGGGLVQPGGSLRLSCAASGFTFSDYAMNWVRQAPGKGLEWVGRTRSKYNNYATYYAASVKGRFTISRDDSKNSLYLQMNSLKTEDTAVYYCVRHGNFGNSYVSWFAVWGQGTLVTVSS VL: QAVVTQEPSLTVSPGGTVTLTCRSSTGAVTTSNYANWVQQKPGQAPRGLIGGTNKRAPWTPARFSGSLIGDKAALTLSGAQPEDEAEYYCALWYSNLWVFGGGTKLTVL sits?
### Response Fulfilled

### Prompt Strictly below 0.4 µM: is that where Kd of huSP34.4.2 Fab-HF (Fab, V domains shown, also called HC4+LC2) VH: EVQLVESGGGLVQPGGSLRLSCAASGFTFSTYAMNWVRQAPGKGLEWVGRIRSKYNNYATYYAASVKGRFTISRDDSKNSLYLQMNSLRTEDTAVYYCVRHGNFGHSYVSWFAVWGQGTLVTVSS VL: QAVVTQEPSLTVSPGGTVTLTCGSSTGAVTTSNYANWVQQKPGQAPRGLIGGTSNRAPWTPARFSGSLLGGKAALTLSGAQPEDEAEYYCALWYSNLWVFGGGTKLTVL sits?
### Response Fulfilled

### Prompt Strictly below 0.4 µM: is that where Kd of huSP34.4.4 Fab-HF (Fab, V domains shown, also called HC4+LC4) VH: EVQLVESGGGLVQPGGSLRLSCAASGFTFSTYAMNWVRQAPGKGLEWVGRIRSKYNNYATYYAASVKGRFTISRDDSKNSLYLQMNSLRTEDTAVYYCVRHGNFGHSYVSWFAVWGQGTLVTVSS VL: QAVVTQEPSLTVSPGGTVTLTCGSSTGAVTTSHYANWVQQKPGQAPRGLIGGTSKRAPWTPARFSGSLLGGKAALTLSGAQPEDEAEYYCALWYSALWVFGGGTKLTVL sits?
### Response Fulfilled
